- measurement-notes: basal S. cerevisiae growth modulation, no modifier, primary screen, OD600, strain BY4716, 24 h, basal condition (AID 1173)
- setup-conditions: OD600, 24 h, higher = more signal, called active from +8 up or from −8 down
endpoint-label: z-score
API note: the answer field is a bare number with no unit suffix.

Query: Would you kindly share the measured z-score for O=C1C2C=CC(C(O)c3ccc(I)cc3)N(Nc3ccccc3)C2C(=O)N1c1ccccc1 (stereo not drawn) ?
Result: -2.16

Query: Would you kindly share the measured z-score for Cc1ccc(S[C@]2(C(=O)NC(C)C)CC(=O)N(C(C)C)[C@@H]2c2ccc(CO)cc2I)cc1 ?
Result: -2.15

Query: Would you kindly share the measured z-score for C=C(C)[C@@H]1CC=C(C(O)C2C=CC3C(=O)N(c4ccccc4)C(=O)C3N2Nc2ccc(C#N)cc2)CC1 (stereo partly drawn) ?
Result: -0.111

Query: Would you kindly share the measured z-score for COc1cc2c(cc1O)C(c1ccc(CN3CCCC3)cc1)N(C)CC2 (stereo not drawn) ?
Result: 0.447

Query: Would you kindly share the measured z-score for [N-]=[N+]=Nc1ccccc1C[C@]1(C(=O)O)N=C(c2ccc(OCCCO)cc2)O[C@H]1c1ccccc1N=[N+]=[N-] ?
Result: -2.36

Query: Would you kindly share the measured z-score for C=C(/C(=C/C[C@@H](OC(=O)c1ccncc1)c1cccc(OCCO)c1)c1cnc2ccccc2c1)C(C)C ?
Result: -1.48

Query: Would you kindly share the measured z-score for COCCOC(=O)N1C(=O)[C@@]2(c3cc(C#CCCO)ccc31)[C@H](C(N)=O)[C@H]1C(=O)O[C@H](c3ccccc3)[C@H](c3ccccc3)N1[C@@H]2c1ccc(OCCO)cc1 ?
Result: 1.21

Query: Would you kindly share the measured z-score for C=CCNC(=O)[C@@H]1[C@H]2C(=O)O[C@H](c3ccccc3)[C@H](c3ccccc3)N2[C@H](c2ccc(O)cc2)[C@@]12C(=O)Nc1ccc(C#CCC(C(=O)OC)C(=O)OC)cc12 ?
Result: 1.12

----------
- target-or-system: Epidermal growth factor receptor (Homo sapiens) (UniProt P00533)
- Sequence (P00533 whole entry, looked up): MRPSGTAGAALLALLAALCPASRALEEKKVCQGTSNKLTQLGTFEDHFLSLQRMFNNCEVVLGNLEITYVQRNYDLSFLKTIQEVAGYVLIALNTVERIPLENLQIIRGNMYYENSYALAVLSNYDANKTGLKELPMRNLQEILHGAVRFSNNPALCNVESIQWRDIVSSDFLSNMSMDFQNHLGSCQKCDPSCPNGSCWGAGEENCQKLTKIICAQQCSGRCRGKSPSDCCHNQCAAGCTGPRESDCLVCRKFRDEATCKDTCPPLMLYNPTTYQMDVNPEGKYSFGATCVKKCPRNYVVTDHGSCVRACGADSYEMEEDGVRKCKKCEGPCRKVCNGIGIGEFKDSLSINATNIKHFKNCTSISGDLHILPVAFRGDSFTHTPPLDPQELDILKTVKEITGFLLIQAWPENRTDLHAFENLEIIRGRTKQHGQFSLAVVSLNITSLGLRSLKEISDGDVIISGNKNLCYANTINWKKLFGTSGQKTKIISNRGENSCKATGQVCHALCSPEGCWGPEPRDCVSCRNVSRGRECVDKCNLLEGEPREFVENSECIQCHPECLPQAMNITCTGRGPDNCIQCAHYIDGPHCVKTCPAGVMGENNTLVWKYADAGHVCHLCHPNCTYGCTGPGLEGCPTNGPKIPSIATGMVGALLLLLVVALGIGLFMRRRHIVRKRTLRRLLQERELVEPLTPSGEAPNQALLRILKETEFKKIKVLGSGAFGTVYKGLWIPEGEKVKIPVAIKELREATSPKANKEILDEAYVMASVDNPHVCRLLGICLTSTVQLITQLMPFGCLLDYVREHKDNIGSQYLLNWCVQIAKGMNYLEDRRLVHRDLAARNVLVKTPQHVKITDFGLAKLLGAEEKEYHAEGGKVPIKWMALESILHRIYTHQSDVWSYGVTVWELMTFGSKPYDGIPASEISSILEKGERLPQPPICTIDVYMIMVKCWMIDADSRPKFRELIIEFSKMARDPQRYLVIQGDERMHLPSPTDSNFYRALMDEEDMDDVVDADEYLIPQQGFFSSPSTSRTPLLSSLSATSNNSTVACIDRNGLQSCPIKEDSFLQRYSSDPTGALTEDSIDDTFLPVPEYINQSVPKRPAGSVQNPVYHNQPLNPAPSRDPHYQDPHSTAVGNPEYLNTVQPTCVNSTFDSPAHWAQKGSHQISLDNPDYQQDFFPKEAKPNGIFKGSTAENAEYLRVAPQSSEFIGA
- measurement-notes: EGFR binders on small-molecule microarrays, primary screen, biochemical, small-molecule microarray, 635 nm fluorescence (AID 1104);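 note: score merges 667 nm emission intensity with spot signal to noise over triplicate slides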
- setup-conditions: EGFR binding, higher = more signal
endpoint-label: composite z-score
API note: the answer field is a bare number with no unit suffix.

Query: Would you kindly share the measured composite z-score for [N-]=[N+]=NCc1ccccc1[C@H]1OC(c2ccc(OCCCO)cc2)=N[C@@]1(Cc1ccccc1)C(=O)NCCN1CCOCC1 ?
Result: 0.446

Query: Would you kindly share the measured composite z-score for COC(=O)[C@@]1(Cc2ccc(OC)cc2)[C@H]2c3cc(C(=O)N4CCCC4)n(Cc4cc(C)n(C)n4)c3C[C@H]2CN1C(=O)c1ccccc1 ?
Result: -0.158

Query: Would you kindly share the measured composite z-score for C=CCN1C(=O)[C@@]2(O[C@@H](CCO)[C@H]([Si](C)(C)c3ccc(OC)cc3)[C@H]2C)c2cc(N3CCOC3=O)ccc21 ?
Result: -0.114

Query: Would you kindly share the measured composite z-score for CC(=O)N1CC(C(O)C2C=CC3C(=O)NC(=O)C3N2Nc2ccc(Cl)cc2Cl)c2ccccc21 (centres undefined) ?
Result: -0.105

----------
- measurement-notes: small-molecule microarray binders of probe aLefty2, primary screen, biochemical, biotinylated probe, 635/667 nm fluorescence (AID 1094);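 note: score merges spot fluorescence near 667 nm with spot signal-to-noise ratio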
- setup-conditions: higher = more signal
endpoint-label: composite z-score
API note: the answer field is a bare number with no unit suffix.

Query: Would you kindly share the measured composite z-score for NC(=O)[C@H]1[C@@H]2C(=O)O[C@@H](c3ccccc3)[C@@H](c3ccccc3)N2[C@@H](c2ccc(O)cc2)[C@]12C(=O)Nc1ccc(C#CC3=CCCCC3)cc12 ?
Result: -0.185

Query: Would you kindly share the measured composite z-score for COCCOC(=O)N1C(=O)[C@@]2(c3cc(C#CCCO)ccc31)[C@H](C(=O)N1CCCCCCC1)[C@H]1C(=O)O[C@H](c3ccccc3)[C@H](c3ccccc3)N1[C@@H]2c1ccccc1OCCO ?
Result: 1.47

Query: Would you kindly share the measured composite z-score for COC(=O)[C@@]1(Cc2ccccc2)[C@H]2c3cc(C(=O)N(C)C)n(CCn4cc([N+](=O)[O-])nc4C)c3C[C@H]2CN1C(=O)c1ccccc1 ?
Result: 0.16

----------
- measurement-notes: S. cerevisiae RM11-1a growth modifiers, primary screen, strain RM11-1a, OD600, basal, 24 h (AID 1177);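 note: cultures grown under basal conditions with no added stressor; test concentration not given here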
- setup-conditions: OD600, 24 h, higher = more signal, called active from +8 up or from −8 down
endpoint-label: z-score
API note: the answer field is a bare number with no unit suffix.

Query: Would you kindly share the measured z-score for COC(=O)[C@@]1(Cc2ccccc2CN=[N+]=[N-])N=C(c2ccc(OCCCO)cc2)O[C@H]1c1ccccc1 ?
Result: 2.81

Query: Would you kindly share the measured z-score for CO[C@H]1O[C@H](CO)[C@@H](OC(=O)Nc2ccc(C#N)cc2)[C@@H]2OC(=O)[C@H](Cc3cccc(Br)c3)C/C=C/C[C@@H](Cc3cccc(Br)c3)C(=O)O[C@@H]12 ?
Result: 0.99

Query: Would you kindly share the measured z-score for CC(C)CNC(=O)[C@@H]1c2ccccc2C(=O)N(C2CCCCC2)[C@H]1c1ccc(CO)cc1 ?
Result: -1.22

Query: Would you kindly share the measured z-score for CC(C)CNC(=O)[C@@]1(c2ccc([N+](=O)[O-])cc2)CC(=O)N(C2CCCCC2)[C@@H]1c1ccc(CO)cc1 ?
Result: -0.377

----------
I'd appreciate it if you could supply composite z-score values for the items below.
- Test system: glycogen synthase kinase-3 (GSK3A per assay name; protocol says GSK3B)
- measurement-notes: GSK3 binders on small-molecule microarrays, primary screen, biochemical, small-molecule microarray, 635 nm fluorescence, GSK3A (AID 1103); note: the record names both GSK3A and GSK3B
- setup-conditions: small-molecule microarray binding, fluorescence 635 nm; higher = more signal
API note: the answer field is a bare number with no unit suffix.

Query: Give composite z-score (glycogen synthase kinase-3 (GSK3A per assay name; protocol says GSK3B)) of the following compound: C=CCNC(=O)[C@@H]1[C@H]2C(=O)O[C@H](c3ccccc3)[C@H](c3ccccc3)N2[C@H](c2ccc(O)cc2)[C@@]12C(=O)Nc1ccc(C#CCC(C(=O)OC)C(=O)OC)cc12
Result: 0.958

Query: Give composite z-score (glycogen synthase kinase-3 (GSK3A per assay name; protocol says GSK3B)) of the following compound: CCOC(=O)C[C@H]1[C@H](OC(=O)c2ccc(-c3ccccc3)cc2)[C@@H](NC(=O)CC(C)C)c2cc(OCCCO)ccc2N1C(=O)c1ccccc1
Result: -0.106

Query: Give composite z-score (glycogen synthase kinase-3 (GSK3A per assay name; protocol says GSK3B)) of the following compound: C=CCNC(=O)[C@H]1[C@@H]2C(=O)O[C@@H](c3ccccc3)[C@@H](c3ccccc3)N2[C@@H](c2ccc(OCCO)cc2)[C@]12C(=O)N(C(=O)OCCOC)c1ccc(C#Cc3ccc(OC)cc3)cc12
Result: 1.28

Query: Give composite z-score (glycogen synthase kinase-3 (GSK3A per assay name; protocol says GSK3B)) of the following compound: COc1ccc(C(O)C2C=CC3C(=O)N(c4ccccc4)C(=O)C3N2Nc2ccc(C(C)C)cc2)c2ccccc12 (configuration not stated)
Result: 1.29

Query: Give composite z-score (glycogen synthase kinase-3 (GSK3A per assay name; protocol says GSK3B)) of the following compound: CCCNC(=O)[C@@]1(Sc2ccc(C)cc2)CC(=O)N(C2CCCCC2)[C@@H]1c1ccc(CO)cc1I
Result: 0.718

Query: Give composite z-score (glycogen synthase kinase-3 (GSK3A per assay name; protocol says GSK3B)) of the following compound: CCCCC=C[C@@H](NC(=O)c1ccccc1)c1ccccc1
Result: 1.22

Query: Give composite z-score (glycogen synthase kinase-3 (GSK3A per assay name; protocol says GSK3B)) of the following compound: C=C(/C(=C/C[C@H](OC(=O)c1ccncc1)c1ccccc1OCCO)c1cnc2ccccc2c1)C(C)C
Result: 1.06

Query: Give composite z-score (glycogen synthase kinase-3 (GSK3A per assay name; protocol says GSK3B)) of the following compound: COc1ccc(C(O)C2C=CC3C(=O)N(c4ccccc4)C(=O)C3N2Nc2ccccc2F)cc1 (configuration not stated)
Result: 0.102

Query: Give composite z-score (glycogen synthase kinase-3 (GSK3A per assay name; protocol says GSK3B)) of the following compound: COc1ccc([Si](C)(C)[C@H]2[C@H](CC(=O)N3Cc4ccccc4C[C@H]3CO)O[C@@]3(C(=O)N(Cc4ccc(N5C(=O)c6cccc7cccc5c67)cc4)c4ccccc43)[C@@H]2C)cc1
Result: 1.28

Query: Give composite z-score (glycogen synthase kinase-3 (GSK3A per assay name; protocol says GSK3B)) of the following compound: COc1cc(CO)cc(I)c1O[C@H]1C=C(C(=O)NCCO)C[C@@H](NCC2CCCCC2)[C@@H]1O
Result: 0.0102

Query: Give composite z-score (glycogen synthase kinase-3 (GSK3A per assay name; protocol says GSK3B)) of the following compound: C[C@]1(C(=O)NCC(F)(F)F)c2ccccc2C(=O)N(Cc2ccccc2)[C@H]1c1ccc(CO)cc1
Result: -1.8

Query: Give composite z-score (glycogen synthase kinase-3 (GSK3A per assay name; protocol says GSK3B)) of the following compound: COCCOC(=O)N1C(=O)[C@@]2(c3cc(C#CCC(C(=O)OC)C(=O)OC)ccc31)[C@H](c1ccc(OCCO)cc1)N1[C@H](c3ccccc3)[C@H](c3ccccc3)OC(=O)[C@H]1[C@@H]2C(=O)Nc1nc2ccccc2s1
Result: 1.06

Query: Give composite z-score (glycogen synthase kinase-3 (GSK3A per assay name; protocol says GSK3B)) of the following compound: C=C(CCCC)C(=O)CC[C@H](OC(=O)c1ccccc1-c1ccccc1C(=O)O)c1ccccc1OCCO
Result: -0.218

Query: Give composite z-score (glycogen synthase kinase-3 (GSK3A per assay name; protocol says GSK3B)) of the following compound: CCCNC(=O)[C@@]1(C)c2ccccc2C(=O)N(Cc2ccccc2)[C@H]1c1ccc(CO)cc1
Result: -0.136

Query: Give composite z-score (glycogen synthase kinase-3 (GSK3A per assay name; protocol says GSK3B)) of the following compound: CC1(C)C(=O)C(c2ccccc2)=C2CN3C(=O)N(CCc4ccccc4)C(=O)C3(Cc3ccc(C(F)(F)F)cc3)C=C21 (configuration not stated)
Result: 0.288

Query: Give composite z-score (glycogen synthase kinase-3 (GSK3A per assay name; protocol says GSK3B)) of the following compound: CC(C)[C@H]1NC(=O)[C@@]23C(=O)N[C@@H](Cc4ccccc4)C2[C@H](C)[C@@]2(C)O[C@H]2C3/C=C/CCC/C=C/CNC(=O)[C@H](Cc2ccccc2)NC1=O (some centres not stated)
Result: 0.291

Query: Give composite z-score (glycogen synthase kinase-3 (GSK3A per assay name; protocol says GSK3B)) of the following compound: COCCCNC(=O)[C@@]1(c2ccc([N+](=O)[O-])cc2)CC(=O)N(CC23CC4CC(CC(C4)C2)C3)[C@@H]1c1ccc(CO)cc1I
Result: -0.115

Query: Give composite z-score (glycogen synthase kinase-3 (GSK3A per assay name; protocol says GSK3B)) of the following compound: C=CCC(OC(C)=O)[C@@H]1[C@@H](N(Cc2cccc3ccccc23)C(=O)c2cccc3ccccc23)c2cc(OCCCO)ccc2N1C(=O)c1ccc2ccccc2c1 (some centres not stated)
Result: -0.0993

Query: Give composite z-score (glycogen synthase kinase-3 (GSK3A per assay name; protocol says GSK3B)) of the following compound: CN1C(=O)C2C(C1=O)C1C=C(CCCO)C2C(c2cccs2)N1Cc1cc2c(cc1Br)OCO2 (configuration not stated)
Result: 1.34

Query: Give composite z-score (glycogen synthase kinase-3 (GSK3A per assay name; protocol says GSK3B)) of the following compound: NC(=O)NCC#Cc1ccc2c(c1)[C@]1(C(=O)N2)[C@H](C(=O)N2CCN(c3ncccn3)CC2)[C@H]2C(=O)O[C@H](c3ccccc3)[C@H](c3ccccc3)N2[C@@H]1c1ccc(OCCO)cc1
Result: -0.364

Query: Give composite z-score (glycogen synthase kinase-3 (GSK3A per assay name; protocol says GSK3B)) of the following compound: COc1ccc(C(=O)Nc2cccc(CN3C(=O)[C@@]4(O[C@@H](CC(=O)N(CCO)Cc5ccccc5)[C@H]([Si](C)(C)c5ccc(OC)cc5)[C@H]4C)c4ccccc43)c2)cc1
Result: 0.196

Query: Give composite z-score (glycogen synthase kinase-3 (GSK3A per assay name; protocol says GSK3B)) of the following compound: [N-]=[N+]=NCc1ccccc1[C@H]1OC(c2ccc(OCCCO)cc2)=N[C@@]1(CCS(=O)(=O)c1ccccc1)C(=O)NCc1ccccc1
Result: 1.29

Query: Give composite z-score (glycogen synthase kinase-3 (GSK3A per assay name; protocol says GSK3B)) of the following compound: CCOC(=O)C=Cc1ccccc1O
Result: 0.513

Query: Give composite z-score (glycogen synthase kinase-3 (GSK3A per assay name; protocol says GSK3B)) of the following compound: COCCCNC(=O)[C@@]1(c2ccc([N+](=O)[O-])cc2)CC(=O)N(C(C)C)[C@@H]1c1ccc(CO)cc1
Result: -0.63

Query: Give composite z-score (glycogen synthase kinase-3 (GSK3A per assay name; protocol says GSK3B)) of the following compound: CN1C(=O)C2C=CC(C(O)c3ccc(F)cc3)N(NC(=O)OC(C)(C)C)C2C1=O (configuration not stated)
Result: 0.336

Query: Give composite z-score (glycogen synthase kinase-3 (GSK3A per assay name; protocol says GSK3B)) of the following compound: C=CCC(OC(C)=O)[C@@H]1[C@@H](N(Cc2ccc(-c3cccc(C(F)(F)F)c3)o2)C(=O)c2cccc3ccccc23)c2cc(OCCCO)ccc2N1C(=O)Cc1ccc(OC)cc1 (some centres not stated)
Result: -1.13

Query: Give composite z-score (glycogen synthase kinase-3 (GSK3A per assay name; protocol says GSK3B)) of the following compound: COc1ccc([Si](C)(C)[C@@H]2[C@@H](CC(=O)N3Cc4ccccc4C[C@H]3CO)O[C@]3(C(=O)N(c4ccccc4)c4ccccc43)[C@H]2C)cc1
Result: 1.26

Reference source: PubChem BioAssay
